Biological target: dmU1A (U1A RRM1 Y31H/Q36R) (Homo sapiens, UniProt P09012 1-98, Y31H;Q36R)
Sequence (P09012 1-98 Y31H/Q36R): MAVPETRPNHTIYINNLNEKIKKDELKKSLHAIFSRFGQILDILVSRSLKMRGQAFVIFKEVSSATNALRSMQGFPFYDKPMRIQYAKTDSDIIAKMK
Experiment: ITC; ITC: 50 mM Na-HEPES pH 7.5, 50 mM NaCl, 50 mM KCl, 2 mM MgCl2, 5 mM beta-mercaptoethanol, 20 C; protein in syringe, RNA in cell
Conditions: protein: recombinant; tags: N-terminal 6xHis removed with TEV protease; hairpin, loop closed by C65-G76
measurement_type: Kd (nM)
Your answer should be a plain number; it is taken to be in nM.

Dear colleague, please send me the reported Kd for CGAAUCCAUUGCACUCCGGAUUCG (structured_RNA) [hpII 24-mer (U1 snRNA hairpin II)] when you can.
152
